The measurements presented in this section are drawn from PubChem BioAssay.

# composite z-score per record follows
Tested On: Fibroblast growth factor 10 (Homo sapiens)
Assay Procedure: FGF10 binders on small-molecule microarrays, primary screen, biochemical, small-molecule microarray, 635 nm fluorescence (AID 1102)
Condition Summary: FGF10 binding, fluorescence 635 nm, higher = more signal
Respond numerically, and do not add a unit to the figure.

Worked examples, 3 compounds total:
INSERT INTO assay_data (compound, reported) VALUES
  ('O=C1C2C=CC(C(O)C(c3ccccc3)c3ccccc3)N(n3cnnc3)C2C(=O)N1Cc1ccccc1 (stereo not drawn)', 1.25),
  ('CCCCCN1CC=CC23O[C@@H]4/C=C\CCCOC(=O)C4[C@H]2C(=O)N(C(CO)C(C)C)[C@@H]3C1=O (stereo partly drawn)', 0.0758),
  ('CCCC=C(CCC)[C@@H](NC(=O)Oc1ccc(F)cc1)c1ccc(C(=O)OC)cc1', 0.441);

Exercise: Give recorded composite z-score. CCCCCCC#C[Si](O[C@H](c1ccccc1)c1cn([C@H](CO)Cc2ccccc2)nn1)(C(C)C)C(C)C
Key: 0.629
